- study-system: CYP2C9 (Homo sapiens, UniProt P11712)
- Sequence (P11712 whole entry): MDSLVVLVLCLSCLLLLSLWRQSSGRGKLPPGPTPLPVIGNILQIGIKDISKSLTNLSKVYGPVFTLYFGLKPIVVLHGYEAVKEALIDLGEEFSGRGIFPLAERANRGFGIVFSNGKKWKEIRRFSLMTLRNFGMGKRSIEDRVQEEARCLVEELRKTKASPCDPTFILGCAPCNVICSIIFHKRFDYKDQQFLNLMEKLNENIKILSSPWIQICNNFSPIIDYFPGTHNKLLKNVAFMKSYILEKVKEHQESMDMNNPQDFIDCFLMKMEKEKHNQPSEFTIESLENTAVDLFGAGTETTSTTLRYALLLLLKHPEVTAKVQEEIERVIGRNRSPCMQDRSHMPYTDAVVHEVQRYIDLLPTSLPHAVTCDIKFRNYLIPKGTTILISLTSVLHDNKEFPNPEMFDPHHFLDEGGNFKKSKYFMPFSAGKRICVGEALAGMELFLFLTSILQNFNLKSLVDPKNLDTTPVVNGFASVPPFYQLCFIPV
- measurement-notes: Reversible CYP inhibition in human liver microsomes
- measurement-parameters: human, microsomes, pH 7.4, Percent of Control Activity, CYP 2C9, 0.158 µM, Zero-Minute Preincubation

molecular-string: COc1cccc2[nH]c(C(=O)N[C@@H](CC(C)C)C(=O)N[C@@H](C[C@@H]3CCNC3=O)C(=O)COP(=O)(O)O)cc12
unit-tag: %
activity at 0.158 µM: 103

====

- measurement-notes: Plasma protein binding by equilibrium dialysis
- measurement-parameters: Wistar Hannover, rat, plasma, pH 7.4, Plasma fu, Vdss input

molecular-string: COc1cccc2[nH]c(C(=O)N[C@@H](CC(C)C)C(=O)N[C@@H](C[C@@H]3CCNC3=O)C(=O)CO)cc12
fraction unbound at 6 h: 0.327

====

- Tested on: CYP3A4/5
- measurement-notes: in vitro
- measurement-parameters: human, microsomes, pH 7.4, Percent of Control Activity, CYP 3A4/5 (tst), 0.979 µM, 30-Minute Preincubation

molecule: COc1cccc2[nH]c(C(=O)N[C@@H](CC(C)C)C(=O)N[C@@H](C[C@@H]3CCNC3=O)C(=O)CO)cc12 [PF-00835231]
activity at 30 min, 0.979 µM [%]: 97.6

====

- study-system: HKU4-CoV 3CL^pro (Bat coronavirus HKU4)
- Sequence (P0C6W3 3292-3597 limits assumed): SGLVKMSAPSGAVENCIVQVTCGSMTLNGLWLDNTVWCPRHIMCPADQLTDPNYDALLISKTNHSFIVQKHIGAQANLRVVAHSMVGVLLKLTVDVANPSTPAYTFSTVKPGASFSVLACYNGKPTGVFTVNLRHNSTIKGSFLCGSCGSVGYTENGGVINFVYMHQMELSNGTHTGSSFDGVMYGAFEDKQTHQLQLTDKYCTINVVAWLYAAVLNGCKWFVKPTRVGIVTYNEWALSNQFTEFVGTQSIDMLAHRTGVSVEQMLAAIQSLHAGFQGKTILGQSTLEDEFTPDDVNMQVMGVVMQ
pKi: −log10 of the molar value.

molecular-string: COc1cccc2[nH]c(C(=O)N[C@@H](CC(C)C)C(=O)N[C@@H](C[C@@H]3CCNC3=O)C(=O)CO)cc12
study-system: HKU4-CoV 3CL^pro (Bat coronavirus HKU4)
pKi: 10.47

====

- measurement-notes: Plasma protein binding by equilibrium dialysis
- measurement-parameters: human, plasma, pH 7.4, Unbound fraction fu (%CV), human plasma

molecule: COc1cccc2[nH]c(C(=O)N[C@@H](CC(C)C)C(=O)N[C@@H](C[C@@H]3CCNC3=O)C(=O)COP(=O)(O)O)cc12 [PF-07304814]
fraction unbound at 6 h: 0.184
--
molecule: COc1cccc2[nH]c(C(=O)N[C@@H](CC(C)C)C(=O)N[C@@H](C[C@@H]3CCNC3=O)C(=O)CO)cc12 [PF-00835231]
fraction unbound at 6 h: 0.449

====

- System: SARS-CoV-2
- measurement-notes: microbe, parasite or virus in culture
- Assay type: cell-based
- measurement-parameters: Severe acute respiratory syndrome coronavirus 2, Vero C1008; N=3; read-out: EC50 ± Std. Dev

compound: COc1cccc2[nH]c(C(=O)N[C@@H](CC(C)C)C(=O)N[C@@H](C[C@@H]3CCNC3=O)C(=O)CO)cc12 [PF-00835231]
EC50: 60 nM

====

Below, each entry is listed with its recorded Vd.
- measurement-notes: Monkey pharmacokinetic study
- measurement-parameters: male, cynomolgus monkey, plasma, iv, Vdss, monkey IV (n=2, range); PF-07304814 […], PF-00835231 1.0mg/kg

compound: COc1cccc2[nH]c(C(=O)N[C@@H](CC(C)C)C(=O)N[C@@H](C[C@@H]3CCNC3=O)C(=O)CO)cc12 [PF-00835231]
unit-tag: L/kg
Vd: 1.4
--
compound: COc1cccc2[nH]c(C(=O)N[C@@H](CC(C)C)C(=O)N[C@@H](C[C@@H]3CCNC3=O)C(=O)COP(=O)(O)O)cc12 [PF-07304814]
unit-tag: L/kg
Vd: 1.8
